Species on record: Homo sapiens
Assay: Selectivity ratio of Ki for human recombinant adenosine A1 receptor to Ki for human recombinant adenosine A2A receptor
Classify by measured Ratio Ki: 1 if it is equal to or exceeds 40, -1 if it is smaller.

Answered cases to consult:
- MOLECULE: "O=C(c1ccccc1)c1sc(N(Cc2ccccc2)Cc2ccco2)nc1-c1ccco1"
  DISCRETE_LABEL: 1
- MOLECULE: "CC(C)CNc1nc(-c2ccco2)c(C(=O)c2ccccc2)s1"
  DISCRETE_LABEL: -1
- MOLECULE: "O=C(c1ccccc1)c1sc(NC2CCN(C(=O)c3ccccc3F)CC2)nc1-c1ccco1"
  DISCRETE_LABEL: -1
- MOLECULE: "O=C(c1ccccc1)c1sc(NCc2ccco2)nc1-c1ccco1"
  DISCRETE_LABEL: -1
- MOLECULE: "O=C(c1ccccc1)c1sc(NCc2cccs2)nc1-c1ccco1"
  DISCRETE_LABEL: 1
- MOLECULE: "CNc1nc(-c2ccco2)c(C(=O)c2ccccc2)s1"
  DISCRETE_LABEL: 1
- MOLECULE: "O=C(c1ccccc1)c1sc(NCCCc2ccccc2)nc1-c1ccco1"
  DISCRETE_LABEL: 1
- MOLECULE: "CC(=O)N1CCC(Nc2nc(-c3ccco3)c(C(=O)c3ccccc3)s2)CC1"
  DISCRETE_LABEL: -1
- MOLECULE: "O=C(c1ccccc1)c1sc(NCCc2cccs2)nc1-c1ccco1"
  DISCRETE_LABEL: 1
- MOLECULE: "CN(Cc1ccccc1)c1nc(-c2ccco2)c(C(=O)c2ccccc2)s1"
  DISCRETE_LABEL: -1

Asked: Answer whether Ratio Ki of O=C(c1ccccc1)c1sc(NCCc2ccc3c(c2)OCO3)nc1-c1ccco1 is greater than or equal to 40.
Given back: 1

Asked: Answer whether Ratio Ki of CC(=O)NCCNc1nc(-c2ccco2)c(C(=O)c2ccccc2)s1 is greater than or equal to 40.
Given back: -1

Asked: Answer whether Ratio Ki of COCCNc1nc(-c2ccco2)c(C(=O)c2ccccc2)s1 is greater than or equal to 40.
Given back: -1

Asked: Answer whether Ratio Ki of CN(Cc1ccco1)c1nc(-c2ccco2)c(C(=O)c2ccccc2)s1 is greater than or equal to 40.
Given back: -1

Asked: Answer whether Ratio Ki of COC(C)CNc1nc(-c2ccco2)c(C(=O)c2ccccc2)s1 (centres undefined) is greater than or equal to 40.
Given back: -1

Asked: Answer whether Ratio Ki of O=C(c1ccccc1)c1sc(NCc2ccc(F)c(F)c2)nc1-c1ccco1 is greater than or equal to 40.
Given back: 1

* * *

Listing of recorded pKi by entry.
Molecular target: Adenosine receptor A1 (Homo sapiens, UniProt P30542)
Sequence (P30542 whole entry): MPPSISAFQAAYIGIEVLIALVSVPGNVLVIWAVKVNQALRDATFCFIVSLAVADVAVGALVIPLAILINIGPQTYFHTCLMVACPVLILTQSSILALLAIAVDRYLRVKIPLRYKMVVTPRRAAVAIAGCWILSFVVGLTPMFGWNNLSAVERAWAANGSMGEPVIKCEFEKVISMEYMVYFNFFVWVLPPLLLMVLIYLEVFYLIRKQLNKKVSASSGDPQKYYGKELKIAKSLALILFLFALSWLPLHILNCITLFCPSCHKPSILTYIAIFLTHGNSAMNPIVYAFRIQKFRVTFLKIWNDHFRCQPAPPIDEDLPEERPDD
Assay: Displacement of [3H]DPCPX from human recombinant adenosine A1 receptor expressed in CHOK1 cells
Give only the number. pKi is defined as minus log10 of concentration in molar units.

- COMPOUND: "O=C(c1ccccc1)c1sc(NC2CCN(C(=O)c3ccccc3F)CC2)nc1-c1ccco1"
  pKi: 5.43
- COMPOUND: "O=C(c1ccccc1)c1sc(NCCc2ccc3c(c2)OCO3)nc1-c1ccco1"
  pKi: 5.46

Alright, here's another compound for you.
Asked: What value of pKi has been recorded for this entry: COC(C)CNc1nc(-c2ccco2)c(C(=O)c2ccccc2)s1 (stereo not given)
Given back: 5.40
